All figures here come from paper PMC12331092.

biological target: Rattus norvegicus wild-type β-arrestin2 (Rattus norvegicus, UniProt P29067 1-410); test: ITC; site I (KD1)
Sequence (P29067 whole entry): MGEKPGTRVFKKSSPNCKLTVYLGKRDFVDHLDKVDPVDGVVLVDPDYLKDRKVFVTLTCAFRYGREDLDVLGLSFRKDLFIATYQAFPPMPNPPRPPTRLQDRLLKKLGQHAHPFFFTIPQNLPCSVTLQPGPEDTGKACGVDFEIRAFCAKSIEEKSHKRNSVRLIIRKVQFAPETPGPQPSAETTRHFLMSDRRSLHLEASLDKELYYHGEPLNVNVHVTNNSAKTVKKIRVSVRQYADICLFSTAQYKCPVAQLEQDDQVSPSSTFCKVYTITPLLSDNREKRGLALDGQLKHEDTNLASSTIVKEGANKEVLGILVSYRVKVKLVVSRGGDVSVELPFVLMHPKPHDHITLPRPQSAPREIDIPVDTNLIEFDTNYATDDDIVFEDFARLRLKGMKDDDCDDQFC
Square brackets hold non-standard residues; d marks the D form. Ends that are not written are not given here. pT = C[C@@H](OP(=O)(O)O)[C@H](N)C(=O)O; pS = N[C@@H](COP(=O)(O)O)C(=O)O
ATTRIBUTE MEASURED: Kd (nM)
Unit nM implied. Number only.

Given ASRV[pS]E[pT]EY[pS]ALEQ [C7pp2, phosphopeptide from the carboxyl terminus of CXCR7 (residues 346-359)] , state its recorded Kd.
79.9
